tested on: SK-OV-3 ovarian; assay: NCI-60 one-dose screen, 48 h (100 = growth as untreated, 0 = no growth, -100 = all killed); conditions: 10 µM
The panel holds about 83,000 compounds, 20% with a hit somewhere; the sample as a whole holds those more often.
Give growth for every item shown.
Lab book: enter the figure in %, no units written.

What value of measured growth is listed for COC(=O)c1c(C(=O)OC)c2n(c1C)[C@@H]([C@@H](C)[C@H]1CC[C@H]3[C@@H]4CCC5=CC(=O)CC[C@]5(C)[C@H]4CC[C@]13C)SC2 ?
48.7

What value of measured growth is listed for COc1ccccc1[C@H]1C(C(=O)c2ccc(Cl)cc2)C2(N[C@@H]1c1ccccc1)C(=O)Nc1ccccc12 (stereo partly drawn) ?
16.9

What value of measured growth is listed for Cc1ccc(C(=O)NCCCNc2nc(Nc3ccc(N4CCN(C)CC4)cc3)nc3ccsc23)cc1 ?
92.9

What value of measured growth is listed for CC(=O)c1cc(C(=O)c2ccc3c(c2)NC(=O)CO3)n2ccc3ccccc3c12 ?
108

What value of measured growth is listed for O=C(N/N=C/c1ccc(-c2cccc([N+](=O)[O-])c2)o1)c1[nH]c2ccc(Br)cc2c1-c1ccccc1 ?
32.2

What value of measured growth is listed for COc1cc(OC(F)(F)F)ccc1C(=O)Nc1sc2c(c1C#N)CCC(=O)C2 ?
81.2

What value of measured growth is listed for Cc1ccc(C(=O)Nc2ccc(-n3c(C)nc4c(cnn4-c4ccccc4)c3=O)cc2)cc1 ?
97.4

What value of measured growth is listed for CN1CCN(c2ccc(C(=O)/C=C/c3ccc(OC(F)F)cc3)cc2)CC1 ?
76

###

Give growth for every item shown.
system: KM12 colon; assay: NCI-60 one-dose screen, 48 h (100 = growth as untreated, 0 = no growth, -100 = all killed); settings: 10 µM
Compounds without any hit were thinned out: in the full panel of roughly 83,000, 20% have a hit.
Lab book: enter the figure in %, no units written.

What reported growth corresponds to COc1cccc2nc(Nc3ccc(F)c(NC(=O)c4ccc(CN5CCN(C)CC5)c(C(F)(F)F)c4)c3)ccc12 on KM12 colon?
-22.2

What reported growth corresponds to COc1ccc(NC(=O)CSc2nnc(-c3ccc4nc(-c5ccc(Cl)cc5)[nH]c4c3)o2)cc1 on KM12 colon?
60.4

What reported growth corresponds to Nc1nc(Nc2ccccc2)nn1Cc1c(Cl)cccc1Cl on KM12 colon?
13

What reported growth corresponds to CN(C)c1cccc2c(S(=O)(=O)Nc3cccc(-c4csc(NC(=O)CCCCCN5CCN(c6cc7c(cc6F)C(=O)N(C6CCC(=O)NC6=O)C7=O)CC5)n4)c3)cccc12 (stereo not drawn) on KM12 colon?
104

What reported growth corresponds to COc1ccccc1[C@H]1C(C(=O)c2ccc(Cl)cc2)C2(N[C@@H]1c1ccccc1)C(=O)Nc1ccc(Cl)cc12 (stereo partly drawn) on KM12 colon?
9.71

What reported growth corresponds to Cc1cc(C)nc(NS(=O)(=O)c2ccc(N/C(N)=N/c3nccc(-c4cccs4)n3)cc2)n1 on KM12 colon?
96.9

What reported growth corresponds to Cc1ccc(-c2ccc(SCC(=O)Nc3ccc(S(N)(=O)=O)cc3Br)nn2)cc1 on KM12 colon?
38.3

What reported growth corresponds to O=C(CS(=O)(=O)c1oc(-c2ccc(Cl)cc2)nc1S(=O)(=O)c1ccc(Cl)cc1)N1CCOCC1 on KM12 colon?
55.8

Data provenance is PubChem BioAssay (NCI).
